Target: T1, Cynomolgus Monkey VSIG4-L-His (cynomolgus monkey)
T1 construct: ECD with His tag; also called cyVSIG4-L; cyno VSIG4-L-His
T1 chain: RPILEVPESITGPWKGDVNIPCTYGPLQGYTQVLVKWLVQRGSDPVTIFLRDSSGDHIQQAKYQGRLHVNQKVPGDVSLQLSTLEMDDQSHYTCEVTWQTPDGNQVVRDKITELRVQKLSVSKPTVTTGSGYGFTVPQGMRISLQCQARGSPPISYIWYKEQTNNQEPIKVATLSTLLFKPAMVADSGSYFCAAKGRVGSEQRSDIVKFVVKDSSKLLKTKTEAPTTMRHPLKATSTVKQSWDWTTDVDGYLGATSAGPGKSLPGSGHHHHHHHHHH
Experiment: SPR (FJB)
Here the recorded Kd is given for each entry.
Entry rule: numbers only, all in nM.

Please review the following examples before continuing.
* 14D12 mouse/human chimeric IgG4 (S228P) kappa (antibody, V domains shown) VH: QIQLVQSGPELKKPGETVKISCKASGYTFTNYGMNWVKQTPGKGLKWMGLINTYTGEPTYADDFKGRFAFSLETSASTAYLQINNLKNEDMATYFCARERIYGYLHYFDYWGQGTTLTVSS VL: DVVMTQTPASLAVSLGQRATISCKASQSVDYDGDSYMNWYQQKPGQPPKLLIYAASNLESGIPARFSGSGSGTDFTLNIHPVEEEDAATYYCQQSNEDPRTFGGGTKLEIKR | 4.4
* 14C05 mouse/human chimeric IgG4 (S228P) kappa (antibody, V domains shown) VH: EVMLVESGPELKKPGETVKISCKASGYTFTNYGMNWVKQAPGKGLKWMGSINTYTGEATYADDFKGRFAFSLETSANTAYLQIDNLKNEDTATYFCARGDYYGRGTWFAYWGQGTLVTVSA VL: ETTVTQSHKFMSTSVGDRVSITCKASQDVSTAVAWYQQKPGQSPKLLIYSASYRYPGVPDRFTGSGSGTDFTFTISSVQAEDLAVYYCQQDYSSPWTFGGGTKLEIKR | 5.4
* 16G02 mouse/human chimeric IgG4 (S228P) kappa (antibody, V domains shown) VH: QVQLQQSGAELMKPGASVKISCKATGYTFSSYWIEWVKQRPGHGLEWIGEILPGSSTTNYNEKFKGKATFTADTSSNTAYMQLSSLTSEDSAVYYCAREDHFITTARYAMDYWGQGTSVTVSS VL: DIVLTQSPASLAMSVGQKVTMSCKSSQSLLNSSNQKNYLAWYQQKPGQSPKLLLYFASTRESGVPDRFIGSGSGTDFTLTISSVQAEDLADYFCQQHYSNPLTFGAGTKLELKR | 1.3

Reported Kd ( 16E10 mouse/human chimeric IgG4 (S228P) kappa (antibody, V domains shown) VH: QVQLQQSGAELVRPGTSVKISCKASGYTFTNYWLGWVKQRPGHGLEWIGDIYPGGGYTNYNEKFKGKATLTADTSSSTAYMQLSSLTSEDSAVYFCAKFYYYGSSYYFDSWGQGTTLTVSS VL: DIVLTQSPSSLSVSAGEKVTLSCKSSQSLLNSGNQENYLAWYQQKPGQPPKLLIYGASTRESGVPDRFTGSGSGTDFTLTISSVQAEDLAVYYCQNDHSYPLTFGAGTKLELKR ) = 1.3

Reported Kd ( 12A08 mouse/human chimeric IgG4 (S228P) kappa (antibody, V domains shown) VH: EVMLVESGGGLVKPGGSLKLSCAASGFTFDDFYMYWVRQTPEKRLEWVASISDGGTYTYYPDSVKGRFTISRDNAKNTLYLQLSSLKSEDTAMYYCARGVDKYYYAMDYWGQGTSVTVSS VL: QILLTQSPAIMSASPGEKVTITCSASSSVSYMHWFQQKPGTSPKLWIYSTSNLASGVPARFSGSGSGTSYSLTISRMEAEDAATYYCQQRSSYPLTFGAGTKLELKR ) = 3.9

Reported Kd ( 12A12 mouse/human chimeric IgG4 (S228P) kappa (antibody, V domains shown) VH: QVQMKQSGAELAKPGASVKMSCKASGYTFTNYWMHWVKQRPGQGLEWIGYINPSTGYTDYNQNFKDRATLTADKSSSTAYMQLSSLTSEDSAVYYCIRGSDYYGRDYWGQGTTLTVSS VL: DIQMTQTTSSLSASLGDRVTISCRASQDISNYLNWYQQKPDGTLKLLIYYTSRLHSGVPSRFSGSGSGTDYSLTISNLEQEDIATYFCRQGNTLPWTFGGGTKLEIKR ) = 6.8
